Attribution: paper PMC11920646

# Test system: tyrosine aminotransferase (TAT) activity in HepG2 cells
# ASSAY REMARKS: Induction of TAT enzyme activity in HepG2 cells
# Type: cell-based, human
# CONDITION INFO: 24 h
# Protocol: TAT is a key enzyme in gluconeogenesis under the control of glucocorticoids and their interaction with the GR ([Panin and Usynin, 2008]), where induction of TAT expression is mediated through GR transactivation. HepG2 cells were seeded at 20,000 cells/well in an Eagles’ minimal essential medium (EMEM)-based cell culture medium (Supplementary Material) in 96-well plates and incubated for 24 h in standard conditions. […]
METRIC NAME: EC50 (nM)
Numbers only, in nM.

Task: Item under review: C[C@]12C=CC(=O)C=C1CC[C@@H]1[C@@H]2[C@@H](O)C[C@@]2(C)[C@H]1CC[C@]2(O)C(=O)CO [Prednisolone] . Reported EC50?
Output: 284
